Measured inhibition at 50 µM by item
# Test system: Leishmania donovani
# method: Antiparasitic activity against Leishmania donovani MHOM/SD/1962/1S-Cl2d axenic amastigotes at 50 uM by alamar blue assay
# Type: functional
result-type: inhibition at 50 µM (%)

| smiles-notation | numeric-value |
| --- | --- |
| CCCCn1c(=O)n2n(c1=O)[C@]1(C(C)C)CC[C@]3(COC(C)=O)CC[C@]4(C)C(=C31)[C@@H]2C[C@@H]1[C@@]2(C)CC[C@H](OC(C)=O)C(C)(C)[C@@H]2CC[C@]14C | 49 |
| CC(=O)OC[C@]12CC[C@]3(C(C)C)C1=C1[C@H](C[C@@H]4[C@@]5(C)CC[C@H](OC(C)=O)C(C)(C)[C@@H]5CC[C@@]4(C)[C@]1(C)CC2)n1c(=O)n(-c2ccc(Cl)cc2)c(=O)n13 | 30 |
| CC(=O)OC[C@]12CC[C@]3(C(C)C)C1=C1[C@H](C[C@@H]4[C@@]5(C)CC[C@H](OC(C)=O)C(C)(C)[C@@H]5CC[C@@]4(C)[C@]1(C)CC2)n1c(=O)n(-c2ccc4c(c2)CCC4)c(=O)n13 | 23 |

---

# method: Cytotoxicity against human THP1 cells at 12.5 uM after 48 hrs by alamar blue assay
# Assay type: cell-based
# details: THP-1 cells, read-out: INH
Catalogue of compounds with associated cytotoxicity at 48 h, 12.5 µM
result-type: cytotoxicity at 48 h, 12.5 µM (%)

| smiles-notation | result-type | units-text | numeric-value |
| --- | --- | --- | --- |
| CCn1c(=O)n2n(c1=O)[C@]1(C(C)C)CC[C@]3(COC(C)=O)CC[C@]4(C)C(=C31)[C@@H]2C[C@@H]1[C@@]2(C)CC[C@H](OC(C)=O)C(C)(C)[C@@H]2CC[C@]14C | cytotoxicity at 48 h, 12.5 µM | % | 8.5 |
| CC(=O)OC[C@]12CC[C@]3(C(C)C)C1=C1[C@H](C[C@@H]4[C@@]5(C)CC[C@H](OC(C)=O)C(C)(C)[C@@H]5CC[C@@]4(C)[C@]1(C)CC2)n1c(=O)n(C)c(=O)n13 | cytotoxicity at 48 h, 12.5 µM | % | 39 |
| CC(=O)OC[C@]12CC[C@]3(C(C)C)C1=C1[C@H](C[C@@H]4[C@@]5(C)CC[C@H](OC(C)=O)C(C)(C)[C@@H]5CC[C@@]4(C)[C@]1(C)CC2)n1c(=O)[nH]c(=O)n13 | cytotoxicity at 48 h, 12.5 µM | % | 0 |
| CCC(=O)OC[C@]12CC[C@]3(C(C)C)C1=C1[C@H](C[C@@H]4[C@@]5(C)CC[C@H](OC(=O)CC)C(C)(C)[C@@H]5CC[C@@]4(C)[C@]1(C)CC2)n1c(=O)n(C)c(=O)n13 | cytotoxicity at 48 h, 12.5 µM | % | 5 |

---

Measured inhibition at 50 µM accompanies every entry in the list below.
# System: Leishmania donovani
# method: Antiparasitic activity against Leishmania donovani MHOM/SD/1962/1S-Cl2d axenic amastigotes at 50 uM by alamar blue assay
# Type: functional

| smiles-notation | inhibition at 50 µM |
| --- | --- |
| CC(C)[C@@]12CC[C@]3(CO)CC[C@]4(C)C(=C31)[C@H](C[C@@H]1[C@@]3(C)CC[C@H](O)C(C)(C)[C@@H]3CC[C@]14C)n1c(=O)n(-c3ccccc3)c(=O)n12 | 48% |
| CC(C)[C@@]12CC[C@]3(COC(=O)C4CCCCC4)CC[C@]4(C)C(=C31)[C@H](C[C@@H]1[C@@]3(C)CC[C@H](OC(=O)C5CCCCC5)C(C)(C)[C@@H]3CC[C@]14C)n1c(=O)n(C(C)(C)C)c(=O)n12 | 4.8% |
| CC(C)[C@@]12CC[C@]3(COC(=O)c4ccccc4)CC[C@]4(C)C(=C31)[C@H](C[C@@H]1[C@@]3(C)CC[C@H](OC(=O)c5ccccc5)C(C)(C)[C@@H]3CC[C@]14C)n1c(=O)n(C)c(=O)n12 | 0% |
| COc1cccc(-n2c(=O)n3n(c2=O)[C@]2(C(C)C)CC[C@]4(COC(C)=O)CC[C@]5(C)C(=C42)[C@@H]3C[C@@H]2[C@@]3(C)CC[C@H](OC(C)=O)C(C)(C)[C@@H]3CC[C@]25C)c1 | 44% |
| CC(C)[C@@]12CC[C@]3(COC(=O)c4ccccc4)CC[C@]4(C)C(=C31)[C@H](C[C@@H]1[C@@]3(C)CC[C@H](OC(=O)c5ccccc5)C(C)(C)[C@@H]3CC[C@]14C)n1c(=O)n(-c3ccccc3)c(=O)n12 | 0% |
| CC(=O)OC[C@]12CC[C@]3(C(C)C)C1=C1[C@H](C[C@@H]4[C@@]5(C)CC[C@H](OC(C)=O)C(C)(C)[C@@H]5CC[C@@]4(C)[C@]1(C)CC2)n1c(=O)n(-c2cccc([N+](=O)[O-])c2)c(=O)n13 | 30% |
| CC(=O)OC[C@]12CC[C@]3(C(C)C)C1=C1[C@H](C[C@@H]4[C@@]5(C)CC[C@H](OC(C)=O)C(C)(C)[C@@H]5CC[C@@]4(C)[C@]1(C)CC2)n1c(=O)n(-c2cccc4ccccc24)c(=O)n13 | 58% |
| CC(=O)OC[C@]12CC[C@]3(C(C)C)C1=C1[C@H](C[C@@H]4[C@@]5(C)CC[C@H](OC(C)=O)C(C)(C)[C@@H]5CC[C@@]4(C)[C@]1(C)CC2)n1c(=O)n(-c2ccccc2)c(=O)n13 | 36% |
| CC(=O)OC[C@]12CC[C@]3(C(C)C)C1=C1[C@H](C[C@@H]4[C@@]5(C)CC[C@H](OC(C)=O)C(C)(C)[C@@H]5CC[C@@]4(C)[C@]1(C)CC2)n1c(=O)n(-c2ccc(C(C)=O)cc2)c(=O)n13 | 45% |

---

# Test system: Leishmania donovani
# method: Antiparasitic activity against Leishmania donovani MHOM/SD/1962/1S-Cl2d amastigotes in human THP1 cells at 12.5 uM after 48 hrs by microplate reader
# Format: functional
# details: THP-1, 48 h
inhibition at 12.5 µM listing for selected compounds.
result-type: inhibition at 12.5 µM (%)

| smiles-notation | numeric-value |
| --- | --- |
| CCC(=O)OC[C@]12CC[C@]3(C(C)C)C1=C1[C@H](C[C@@H]4[C@@]5(C)CC[C@H](OC(=O)CC)C(C)(C)[C@@H]5CC[C@@]4(C)[C@]1(C)CC2)n1c(=O)n(C)c(=O)n13 | 18 |
| CC(=O)OC[C@]12CC[C@]3(C(C)C)C1=C1[C@H](C[C@@H]4[C@@]5(C)CC[C@H](OC(C)=O)C(C)(C)[C@@H]5CC[C@@]4(C)[C@]1(C)CC2)n1c(=O)[nH]c(=O)n13 | 4.8 |
| CC(=O)OC[C@]12CC[C@]3(C(C)C)C1=C1[C@H](C[C@@H]4[C@@]5(C)CC[C@H](OC(C)=O)C(C)(C)[C@@H]5CC[C@@]4(C)[C@]1(C)CC2)n1c(=O)n(C)c(=O)n13 | 60 |
| CCn1c(=O)n2n(c1=O)[C@]1(C(C)C)CC[C@]3(COC(C)=O)CC[C@]4(C)C(=C31)[C@@H]2C[C@@H]1[C@@]2(C)CC[C@H](OC(C)=O)C(C)(C)[C@@H]2CC[C@]14C | 0 |

---

# Test system: Leishmania donovani
# method: Antiparasitic activity against Leishmania donovani MHOM/SD/1962/1S-Cl2d axenic amastigotes at 50 uM by alamar blue assay
# Format: functional

| smiles-notation | inhibition at 50 µM, % |
| --- | --- |
| CC(=O)OC[C@]12CC[C@]3(C(C)C)C1=C1[C@H](C[C@@H]4[C@@]5(C)CC[C@H](OC(C)=O)C(C)(C)[C@@H]5CC[C@@]4(C)[C@]1(C)CC2)n1c(=O)[nH]c(=O)n13 | 88 |
| CC(C)[C@@]12CC[C@]3(CO)CC[C@]4(C)C(=C31)[C@H](C[C@@H]1[C@@]3(C)CC[C@H](O)C(C)(C)[C@@H]3CC[C@]14C)n1c(=O)n(C)c(=O)n12 | 50 |
| CC(=O)OC[C@]12CC[C@]3(C(C)C)C1=C1[C@H](C[C@@H]4[C@@]5(C)CC[C@H](OC(C)=O)C(C)(C)[C@@H]5CC[C@@]4(C)[C@]1(C)CC2)n1c(=O)n(Cc2ccccc2)c(=O)n13 | 25 |

---

# Test system: Leishmania donovani
# method: Antiparasitic activity against Leishmania donovani MHOM/SD/1962/1S-Cl2d axenic amastigotes at 50 uM by alamar blue assay
# Type: functional
Decide using inhibition at 50 µM: a value greater than or equal to 90% is true, a smaller one is false.

| smiles-notation | class-label |
| --- | --- |
| CC(=O)OC[C@]12CC[C@]3(C(C)C)C1=C1[C@H](C[C@@H]4[C@@]5(C)CC[C@H](OC(C)=O)C(C)(C)[C@@H]5CC[C@@]4(C)[C@]1(C)CC2)n1c(=O)n(C)c(=O)n13 | true |
| CC(C)[C@@]12CC[C@]3(COC(=O)C4CCCCC4)CC[C@]4(C)C(=C31)[C@H](C[C@@H]1[C@@]3(C)CC[C@H](OC(=O)C5CCCCC5)C(C)(C)[C@@H]3CC[C@]14C)n1c(=O)n(C)c(=O)n12 | false |
| CC(=O)OC[C@]12CC[C@]3(C(C)C)C1=C1[C@H](C[C@@H]4[C@@]5(C)CC[C@H](OC(C)=O)C(C)(C)[C@@H]5CC[C@@]4(C)[C@]1(C)CC2)n1c(=O)n(-c2ccc(F)cc2)c(=O)n13 | false |
| CCC(=O)OC[C@]12CC[C@]3(C(C)C)C1=C1[C@H](C[C@@H]4[C@@]5(C)CC[C@H](OC(=O)CC)C(C)(C)[C@@H]5CC[C@@]4(C)[C@]1(C)CC2)n1c(=O)n(C)c(=O)n13 | true |
